tested on: Dd2-Polδ parasites; experiment: P. falciparum proliferation assay (72 h, fluorescent DNA-intercalating dye); format: cell-based, Plasmodium falciparum; settings: Dd2-Polδ parasites; mean of the experiments; read-out: IC50 values, MEAN
pIC50: −log10 of the molar value.
observed-property: pIC50

1) CCOC(=O)C1=CN(C)C=C(C(=O)OCC)C1c1cc(Br)c(OCC)c(OC)c1 :: 6.46

* * *

test system: Dd2-Polδ parasites; assay: P. falciparum proliferation assay (72 h, fluorescent DNA-intercalating dye); format: cell-based, Plasmodium falciparum; conditions: Dd2-Polδ; single experiments; source data of Fig. 2 (nM in Supplementary Table 1); read-out: IC50 values
observed-property: IC50 (nM)

1) C[C@H]1Cc2c([nH]c3cc(Cl)c(F)cc23)[C@@]2(N1)C(=O)Nc1ccc(Cl)cc12 :: 1.4

* * *

system: Dd2-Polδ-PfATP4^G358S parasites; experiment: P. falciparum proliferation assay (72 h, fluorescent DNA-intercalating dye); type: cell-based, Plasmodium falciparum; details: Dd2-Polδ-PfATP4G358S parasites; mean of the experiments; read-out: IC50 values, MEAN
pIC50: −log10 of the molar value.
observed-property: pIC50

1. CCOC(=O)C1=CN(C)C=C(C(=O)OCC)C1c1cc(Br)c(OCC)c(OC)c1 [MMV006656] :: 5.74

* * *

Tested on: extracellular T. gondii tachyzoites expressing TgATP4^WT
Experiment: [Na+]cyt measurement (SBFI), Na+ dysregulation
Format: cell-based, Toxoplasma gondii
Settings: Toxoplasma gondii, 1.5 h, pH 7.1, WT T. gondii (TgATP4WT); ~90 min exposure, 37 °C, pH 7.1; mean ± SEM; read-out: IC50 for Na+ dysregulation
Description: The ratio of the fluorescence intensity recorded at 340 nm and 380 nm (with an emission wavelength of 515 nm) was converted to [Na^+]cyt using a calibration procedure that entailed suspending parasites in solutions of varying [Na^+] containing ionophores. […]
Each entry below lists one item and its recorded IC50 value.
observed-property: IC50 (µM)

1. N#Cc1cc(NC(=O)[C@H]2c3ccccc3C(=O)N(CC(F)(F)F)[C@@H]2c2cccnc2)ccc1F [(+)-SJ733] :: 5.04
2. C[C@H]1Cc2c([nH]c3cc(Cl)c(F)cc23)[C@@]2(N1)C(=O)Nc1ccc(Cl)cc12 :: 0.11

* * *

tested on: Dd2-PfATP4^T418N,P990R parasites; assay: P. falciparum proliferation assay (72 h, fluorescent DNA-intercalating dye); assay type: cell-based, Plasmodium falciparum; conditions: Plasmodium falciparum, DD2, read-out: Dihydroartemisinin IC50 values, Dd2-PfATP4T418N,P990R; MEAN
pIC50: −log10 of the molar value.
observed-property: pIC50

1) C[C@H]1[C@@H](O)O[C@@H]2O[C@@]3(C)CC[C@H]4[C@H](C)CC[C@@H]1[C@@]24OO3 [Dihydroartemisinin] :: 8.61

* * *

test system: HCR2 parasites (highly cipargamin-resistant clone 2); test: P. falciparum proliferation assay (72 h, fluorescent DNA-intercalating dye); format: cell-based, Plasmodium falciparum; conditions: Plasmodium falciparum, HCR2; MEAN; source data of Fig. 2; read-out: IC50 values, MEAN
Each entry below lists one item and its recorded IC50 value.
observed-property: IC50 (µM)

1. C[C@H]1Cc2c([nH]c3cc(Cl)c(F)cc23)[C@@]2(N1)C(=O)Nc1ccc(Cl)cc12 :: 2.92
2. N#Cc1cc(NC(=O)[C@H]2c3ccccc3C(=O)N(CC(F)(F)F)[C@@H]2c2cccnc2)ccc1F [(+)-SJ733] :: 17.6
